Test: chemical genetic growth profiling, strain panel (AID 1159580);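 note: tested at 20 µM; growth read once vehicle control cultures reached saturation at 30 °C; 1 = growth at the plate median or of vehicle wells; lower values mean less growth of the strain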
Conditions: S. cerevisiae deletion strains, growth OD, locus YEL061C, strain CIN8 (second series), active compounds read low
Screen size: about 5,500 compounds; about 2,000 (36%) were called active. About 18% were inconclusive and are not listed. The list shows a part of the results.
# normalized growth per record follows
Just the number, please, no unit after it.

Per the records, this compound ( `COc1cc(OC)c(C(C)=O)c(O)c1C` ) has normalized growth equal to 0.931

Per the records, this compound ( `CCCCCN=C(N)N/N=C\c1c[nH]c2ccc(OC)cc12` ) has normalized growth equal to 1.01

Per the records, this compound ( `O=c1n(CCCN2CCN(c3cccc(Cl)c3)CC2)nc2ccccn12` ) has normalized growth equal to 0.975

Per the records, this compound ( `N#Cc1ccc2c(c1)N(CCCN1CCC(O)CC1)c1ccccc1S2` ) has normalized growth equal to 0.994

Per the records, this compound ( `O=C(/C=C/C(=O)Oc1ccccc1C(=O)O)Oc1ccccc1C(=O)O` ) has normalized growth equal to 0.981

Per the records, this compound ( `O=C(O)c1cc2cc(Cl)ccc2[nH]1` ) has normalized growth equal to 0.981

Per the records, this compound ( `O=c1[nH]cnc2nc[nH]c12` ) has normalized growth equal to 1.02

----------
Assay: chemical genetic growth profiling, strain panel (AID 1159580);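 note: tested at 20 µM; growth read once vehicle control cultures reached saturation at 30 °C; 1 = growth at the plate median or of vehicle wells; lower values mean less growth of the strain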
Conditions: S. cerevisiae deletion strains, growth OD, locus YDR137W, strain rgp1, active compounds read low
The whole screen tested about 5,500 compounds, of which about 2,000 (36%) were called active. Not shown: some 18% with an inconclusive outcome. The list shows a part of the results.
observable: normalized growth
Just the number, please, no unit after it.

Per the records, this molecule ( `c1ccc2c(c1)[nH]c1cnccc12` ) has normalized growth equal to 0.958

Per the records, this molecule ( `COc1ccc2c(c1)[nH]c1c(C)nccc12` ) has normalized growth equal to 1.01

Per the records, this molecule ( `Cc1nccc2c1[nH]c1ccccc12` ) has normalized growth equal to 0.967

Per the records, this molecule ( CC(C)(O)CC[C@@H](O)[C@](C)(O)C1CC[C@@]2(O)C3=CC(=O)C4C[C@@H](O)[C@@H](O)C[C@]4(C)C3CC[C@]12C (some centres undefined) ) has normalized growth equal to 0.976

----------
# normalized growth per record follows
Assay: chemical genetic growth profiling, strain panel (AID 1159580);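 note: tested at 20 µM; growth read once vehicle control cultures reached saturation at 30 °C; 1 = growth at the plate median or of vehicle wells; lower values mean less growth of the strain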
Details: S. cerevisiae deletion strains, growth OD, locus YFR010W, strain ubp6, active compounds read low
The whole screen tested about 5,500 compounds, of which about 2,000 (36%) were called active. About 18% were inconclusive and are not listed. The list shows a part of the results.
Just the number, please, no unit after it.

Here is how some compounds turned out for normalized growth.
compound: NCCS
observable: normalized growth
valueMeasured: 0.981
--
compound: CSCCC(NC=O)C(=O)NC(CC(C)C)C(=O)NC(Cc1ccccc1)C(=O)O (stereo unspecified)
observable: normalized growth
valueMeasured: 1
--
compound: CC(=O)OC1CCC23C(=O)OC45CCC(C6=CC(=O)OC6)C4(C)CCC2C5CCC3(O)C1 (stereo unspecified)
observable: normalized growth
valueMeasured: 0.959
--
compound: c1ccc2c(c1)[nH]c1cnccc12
observable: normalized growth
valueMeasured: 1
--
compound: CC1=C2CCC3C(CC[C@]4(C)C(=O)CCC34)[C@@]2(C)CCC1=O (stereo partly specified)
observable: normalized growth
valueMeasured: 1.02

Per the records, this compound ( `COc1ccc2c(c1)[nH]c1c(C)nccc12` ) has normalized growth equal to 0.982

Per the records, this compound ( `Cn1c([N+](=O)[O-])cnc1COC(N)=O` ) has normalized growth equal to 0.983
